Tested on: IFNγ-induced NO production in RAW 264.7 cells
Assay Protocol: Nitric Oxide Suppression Assay (IFNγ-induced NO, Griess nitrite readout)
Type: cell-based, mouse
Condition Notes: Mus musculus, RAW264.7, Table 2; RAW 264.7 cells, 2 h pretreatment, 20 ng/mL interferon gamma 24 h; read-out: Avg NO IC50 (nM) (Mean ± SD)
Consider the following compounds and their measured IC50 readings.

Compound	IC50 / nM
C[C@@H]1[C@H]2[C@H]3C(=O)C=C4[C@@]5(C)C=C(C#N)C(=O)C(C)(C)[C@@H]5CC[C@@]4(C)[C@]3(C)CC[C@@]2(Cn2ccnn2)CC[C@H]1C	9.81
Cc1noc([C@]23CC[C@@H](C)[C@H](C)[C@H]2[C@H]2C(=O)C=C4[C@@]5(C)C6O[C@@]6(C#N)C(=O)C(C)(C)[C@@H]5CC[C@@]4(C)[C@]2(C)CC3)n1 (some centres unmarked)	14.8
C[C@@H]1[C@H]2[C@H]3C(=O)C=C4[C@@]5(C)C=C(C#N)C(=O)C(C)(C)[C@@H]5CC[C@@]4(C)[C@]3(C)CC[C@@]2(CN2CCOC2=O)CC[C@H]1C	5.41
C[C@@H]1[C@H]2[C@H]3[C@H]4C[C@@H]5[C@@]6(C)C=C(C#N)C(=O)C(C)(C)[C@@H]6CC[C@@]5(C)[C@]3(C)CC[C@]2(CC[C@H]1C)C(=O)O4	108
C[C@@H]1[C@H]2[C@H]3C(=O)C=C4[C@@]5(C)C=C(C#N)C(=O)C(C)(C)[C@@H]5CC[C@@]4(C)[C@]3(C)CC[C@@]2(F)CC[C@H]1C	12.2

---

Test system: Nrf2 / ARE-dependent luciferase in AREc32 reporter cell line
Assay Protocol: AREc32 luciferase reporter activation (Nrf2 induction)
Type: cell-based, human
Condition Notes: Table 2; ratio to RTA402
Quantity Measured: Relative Avg AREc32 EC2X Relative to RTA402 (fold)

Compound	Recorded Value
C[C@@H]1[C@H]2[C@H]3C(=O)C=C4[C@@]5(C)C=C(C#N)C(=O)C(C)(C)[C@@H]5CC[C@@]4(C)[C@]3(C)CC[C@@]2(CC(=O)O)CC[C@H]1C [Compound T89]	0.345
C[C@H]1[C@H](C)CC[C@]2(Cn3cncn3)CC[C@]3(C)C(O)(C(=O)C=C4[C@@]5(C)C=C(C#N)C(=O)C(C)(C)[C@@H]5CC[C@]43C)[C@H]12 (stereo partly drawn) [Compound T48]	0.602
C[C@@H]1[C@H]2[C@H]3C(=O)C=C4[C@@]5(C)C=C(C#N)C(=O)C(C)(C)[C@@H]5CC[C@@]4(C)[C@]3(C)CC[C@@]2(c2nc(CN(C)C)no2)CC[C@H]1C [Compound T8]	0.321

---

Tested on: Nrf2 / ARE-dependent luciferase in AREc32 reporter cell line
Assay Protocol: AREc32 luciferase reporter activation (Nrf2 induction)
Type: cell-based, human
Condition Notes: Table 2; ratio to RTA402
Quantity Measured: Relative Avg AREc32 EC2X Relative to RTA402 (fold)

Compound	Recorded Value
Cc1noc([C@]23CC[C@@H](C)[C@H](C)[C@H]2[C@H]2C(=O)C=C4[C@@]5(C)C6O[C@@]6(C#N)C(=O)C(C)(C)[C@@H]5CC[C@@]4(C)[C@]2(C)CC3)n1 (stereo partly shown)	0.864 ± 0.046 fold
C[C@@H]1[C@H]2[C@H]3C(=O)C=C4[C@@]5(C)C=C(C#N)C(=O)C(C)(C)[C@@H]5CC[C@@]4(C)[C@]3(C)CC[C@@]2(CCC(=O)O)CC[C@H]1C	0.263 ± 0.085 fold
CCS(=O)(=O)NC[C@]12CC[C@@H](C)[C@H](C)[C@H]1[C@H]1C(=O)C=C3[C@@]4(C)C=C(C#N)C(=O)C(C)(C)[C@@H]4CC[C@@]3(C)[C@]1(C)CC2	0.399 ± 0.111 fold
C[C@@H]1[C@H]2[C@H]3C(=O)C=C4[C@@]5(C)C=C(C#N)C(=O)C(C)(C)[C@@H]5CC[C@@]4(C)[C@]3(C)CC[C@@]2(CNC(=O)C(C)(F)F)CC[C@H]1C	0.317 ± 0.086 fold
